assayNotes: Cmax in fasted Sprague-Dawley rat at 19 mg/kg, po by LC-MS/MS analysis
Format: ADME, organism-based
runParameters: in vivo
readoutName: Cmax (ng/mL)
I only need the number, in ng/mL, no unit after it.

Qu. Consider the molecule CC(C)C(=O)OC[C@@]1(F)O[C@@H](n2ccc(=O)n(COC(=O)c3cccnc3)c2=O)[C@@H]2OC(=O)O[C@@H]21 and give its measured Cmax.
Ans. 1200

----------
assayNotes: AUC (0 to t) in fasted Sprague-Dawley rat at 10 mg/kg, po by LC-MS/MS analysis
Format: ADME, organism-based
runParameters: in vivo
readoutName: AUC(0-t) (ng·h/mL)
Numbers only here, please. The scale is ng·h/mL.

Qu. Quick one: AUC(0-t) of O=c1ccn([C@@H]2O[C@](F)(CO)[C@@H](O)[C@H]2O)c(=O)[nH]1 ?
Ans. 13000

----------
assayNotes: Half life in fasted Cynomolgus monkey at 2 mg/kg, iv by LC-MS/MS analysis
Type: ADME, organism-based, Macaca fascicularis
runParameters: in vivo
readoutName: half-life (h)
# unit: h | format: bare number

Qu. Report half-life for O=c1ccn([C@@H]2O[C@](F)(CO)[C@@H](O)[C@H]2O)c(=O)[nH]1 please.
Ans. 4.34

----------
assayNotes: Cmax in fasted Sprague-Dawley rat at 27 mg/kg, po by LC-MS/MS analysis
Assay type: ADME, organism-based
runParameters: in vivo
readoutName: Cmax

Qu. // Cmax lookup, key: O=C(OCn1c(=O)ccn([C@@H]2O[C@](F)(COC(=O)c3cccnc3)[C@@H](OC(=O)c3cccnc3)[C@H]2OC(=O)c2cccnc2)c1=O)c1cccnc1
Ans. 708 ng/mL

----------
assayNotes: Cmax in fasted Cynomolgus monkey at 2 mg/kg, iv by LC-MS/MS analysis
Format: ADME, organism-based, Macaca fascicularis
runParameters: in vivo
readoutName: Cmax
Don't forget the unit after the number, please.

Qu. Field request: Cmax | item: O=c1ccn([C@@H]2O[C@](F)(CO)[C@@H](O)[C@H]2O)c(=O)[nH]1
Ans. 2530 ng/mL

----------
assayNotes: Cytotoxicity against African green monkey Vero cells
Format: toxicity, cell-based
runParameters: chlorocebus sabaeus
readoutName: CC50

Qu. Entry CC(C)C(=O)OC[C@@]1(F)O[C@@H](n2ccc(=O)n(COC(=O)c3cccnc3)c2=O)[C@H](OC(=O)C(C)C)[C@@H]1OC(=O)C(C)C has what CC50?
Ans. > 100 µM

----------
assayNotes: Stability of compound at pH 4.0 assessed as change in purity at 1 mg/ml incubated for 24 hrs by HPLC analysis
Assay type: physicochemical
runParameters: buffer, pH 4, 24 h
readoutName: Activity

Here are 4 compounds together with their reported answers.
[[record]]
compoundstructure = "CCC(=O)OC[C@@]1(F)O[C@@H](n2ccc(=O)n(COC(=O)c3cccnc3)c2=O)[C@H](OC(=O)CC)[C@@H]1OC(=O)CC"
readoutname = "Activity"
measuredvalue = "-0.1%"

[[record]]
compoundstructure = "O=c1ccn([C@@H]2O[C@](F)(CO)[C@@H](O)[C@H]2O)c(=O)[nH]1"
readoutname = "Activity"
measuredvalue = "-43.5%"

[[record]]
compoundstructure = "CC(=O)O[C@H]1[C@H](n2ccc(=O)n(COC(=O)c3cccnc3)c2=O)O[C@](F)(COC(=O)C(C)C)[C@H]1OC(C)=O"
readoutname = "Activity"
measuredvalue = "-0.2%"

[[record]]
compoundstructure = "CC(C)C(=O)O[C@H]1[C@H](n2ccc(=O)n(COC(=O)c3cccnc3)c2=O)O[C@](F)(COC(=O)c2cccnc2)[C@H]1OC(=O)C(C)C"
readoutname = "Activity"
measuredvalue = "-0.8%"


Now for the compound whose Activity we want.
Qu. What value of Activity has been reported for the following compound? CC(C)C(=O)OC[C@@]1(F)O[C@@H](n2ccc(=O)n(COC(=O)c3cccnc3)c2=O)[C@@H]2OC(=O)O[C@@H]21
Ans. -10.5%
